Values from PubChem BioAssay AID2417

Assay: High Content Assay for Compounds that inhibit the Assembly of the Perinucleolar Compartment;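 note: plate controls were DMSO wells for no effect and camptothecin positive control wells for full effect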
Conditions: PC3M PTB-GFP, PNC prevalence imaging, 16 h; at 10 µM; hits give low values
About 4,300 (3.1%) of roughly 140,000 compounds were called active. Roughly 21% stayed inconclusive and do not appear here. Only a selection was taken, and actives are over-represented in it overall.
Recorded activity change (PNC), negative = inhibition by entry
assay-readout: activity change (PNC), negative = inhibition (%)

[[record]]
molecule = "Cc1nc(CNS(=O)(=O)c2cccnc2)cs1"
reported_measurement = 14.3

[[record]]
molecule = "Cc1cccc(NC(=O)C2CCN(S(=O)(=O)c3cccc4cccnc34)CC2)c1"
reported_measurement = 20.6

[[record]]
molecule = "O=C(CC1NCCNC1=O)Nc1cc(Cl)cc(Cl)c1 (centres undefined)"
reported_measurement = 29.9

[[record]]
molecule = "COc1ccc(C/C(C)=N/NC(=O)c2ccncc2)cc1"
reported_measurement = 36.6

[[record]]
molecule = "O=C(COC(=O)c1cc(-c2cccs2)nn1-c1ccccc1)Nc1cc([N+](=O)[O-])ccc1Cl"
reported_measurement = 21.6

[[record]]
molecule = "COC(=O)C1=C(Nc2ccc(C)cc2)C=C(C)C(C(=O)OC)C1c1ccc(F)cc1 (centres undefined)"
reported_measurement = -100

[[record]]
molecule = "O=C(NCCc1ccccc1)/C(=C\\c1ccc([N+](=O)[O-])cc1)NC(=O)c1ccccc1"
reported_measurement = -6.81

[[record]]
molecule = "Cc1cc(C)n(-c2nc(SCC(=O)N3CCCC3)c3c4c(sc3n2)CCCC4)n1"
reported_measurement = 26

[[record]]
molecule = "Cc1ccn(CC(=O)N2N=C(C(F)F)CC2(O)C(F)F)n1 (centres undefined)"
reported_measurement = 3.67

[[record]]
molecule = "CC1=C[C@H]2Cc3cc(C)cc(C)c3S(=O)(=O)[C@@H]2C=C1"
reported_measurement = 28.1

[[record]]
molecule = "COc1ccccc1NC(=O)c1ccc2nc(N3C(=O)CCC3=O)sc2c1"
reported_measurement = 133

[[record]]
molecule = "COc1ccccc1Nc1ncc(C(C)=O)c(C)n1"
reported_measurement = 9.62

[[record]]
molecule = "COCC(C)n1c(C)cc(C(=O)CSc2cc(C)c3ccccc3n2)c1C (centres undefined)"
reported_measurement = -11.6

[[record]]
molecule = "O=C(N/N=C/c1ccc(O)cc1)/C(=C/c1ccc([N+](=O)[O-])cc1)NC(=O)c1ccccc1"
reported_measurement = -101

[[record]]
molecule = "CCCCn1c(O)c(N=NC(=O)Cn2c(C(F)(F)F)nc3ccccc32)c2ccccc21"
reported_measurement = -20

[[record]]
molecule = "COCCn1c(C)cc(C(=O)CSc2ncnc3sc4c(c23)CCC4)c1C"
reported_measurement = -100

[[record]]
molecule = "Cc1ccc(S(=O)(=O)NCc2csc(C)n2)c(C)c1"
reported_measurement = 36.5

[[record]]
molecule = "CCOC(=O)c1nc(Nc2ccc(C(=O)OC)cc2)c2ccccc2n1"
reported_measurement = -9.55

[[record]]
molecule = "O=C(CCCOc1ccccc1)Nc1cccc(C(=O)O)c1"
reported_measurement = 11.1

[[record]]
molecule = "CC(C)(C)C1CCC(=NNC(=O)c2ccc(Br)o2)CC1 (centres undefined)"
reported_measurement = 30.8

[[record]]
molecule = "CC(=O)c1sc(N/N=C\\c2ccc(C)cc2)nc1C"
reported_measurement = 25.4

[[record]]
molecule = "CCOc1ccc(S(=O)(=O)N(CC(=O)NCC(F)(F)F)Cc2ccco2)cc1"
reported_measurement = 52.1

[[record]]
molecule = "O=C(CSc1ncnc2scc(-c3ccccc3)c12)NCc1ccc2c(c1)OCO2"
reported_measurement = 40.3

[[record]]
molecule = "Cc1[nH]c2ccccc2c1C(=O)COC(=O)c1c(-c2ccccc2)noc1C"
reported_measurement = -121

[[record]]
molecule = "CCOC(=O)c1c(-c2ccc(C)cc2C)csc1NC(=O)CSc1nnnn1C"
reported_measurement = -85.2

[[record]]
molecule = "COc1ccc(CCNC(=O)COC(=O)C2CCCCC2)cc1"
reported_measurement = 43.3

[[record]]
molecule = "CCOC(=O)N1CCN(CC(=O)c2c(C)[nH]c3ccccc23)CC1"
reported_measurement = -18.6

[[record]]
molecule = "Cc1cc(NC(=O)c2cccc(N3C(=O)CCC3=O)c2)no1"
reported_measurement = -7.91

[[record]]
molecule = "CCCC(NC(=O)c1ccco1)c1nc2ccccc2[nH]1 (centres undefined)"
reported_measurement = 16.4

[[record]]
molecule = "Cc1ccc(NC(=S)NCc2ccccc2Cl)c(C)c1"
reported_measurement = 22.9

[[record]]
molecule = "Cc1ccc(C(=O)COC(=O)CCCC(=O)NC2CCCCC2)cc1[N+](=O)[O-]"
reported_measurement = 17

[[record]]
molecule = "O=C(N/N=C/c1ccc(Br)o1)c1cncc(Br)c1"
reported_measurement = -10.5

[[record]]
molecule = "Cc1ccc(C(=O)OCC(=O)NCc2ccc3c(c2)OCO3)s1"
reported_measurement = -9.27

[[record]]
molecule = "O=C(Nc1cccc(Cl)c1)Nc1ccccc1NS(=O)(=O)c1cccs1"
reported_measurement = -1.43

[[record]]
molecule = "COc1ccc(-c2csc(NC(=O)COC(=O)c3ccc(Br)o3)n2)cc1"
reported_measurement = -8.03

[[record]]
molecule = "Cc1nc(CNS(=O)(=O)c2ccc(Oc3ccccc3)cc2)cs1"
reported_measurement = -83.2

[[record]]
molecule = "CCCCC(=O)Nc1ccc(C(=O)Nc2cc(C(F)(F)F)ccc2Cl)cc1"
reported_measurement = 22.8

[[record]]
molecule = "c1n[nH]c(NCc2ccc3c(c2)OCO3)n1"
reported_measurement = -81.5

[[record]]
molecule = "COc1ccc(Cl)cc1NC(=O)CNc1ccccc1F"
reported_measurement = -22.5

[[record]]
molecule = "O=c1cc(CN2CCN(S(=O)(=O)/C=C/c3ccccc3)CC2)c2ccc(O)cc2o1"
reported_measurement = -11.6

[[record]]
molecule = "COc1cccc(/C=N\\NC(=O)C2=NNC(=O)C2C)c1O (centres undefined)"
reported_measurement = -8.21

[[record]]
molecule = "Cc1[nH]c2ccccc2c1C(=O)CSCC(=O)O"
reported_measurement = -15.7

[[record]]
molecule = "Cc1nc(SCC(=O)Nc2cc(C)on2)c2c3c(sc2n1)CCCC3"
reported_measurement = -9.46

[[record]]
molecule = "COc1cc(/C=C2\\SC(=S)N(Nc3ncc(C(F)(F)F)cc3Cl)C2=O)cc(OC)c1OC"
reported_measurement = 7.84

